experiment: Confirmation Concentration-Response Assay for Enhancers of SMN2 Splice Variant Expression; settings: HEK293 SMN2-exon7-luciferase splicing reporter, luminescence, 30-36 h; series mostly up to 46.1 µM
Inconclusive results are not listed. Calls of active or inactive are those of the source. Calls follow the shape of the dose curve; as a rule, active = well fitted activation curve with a large enough effect; inconclusive = small, poorly fitted or top-dose-only effect; inactive = no such curve, though single readings can be large or run the other way.
Return exactly one item of y for active, n for inactive

Field: outcome | Entry: O=C(Nc1nc(-c2ccc3ccccc3c2)cs1)C1CCN(S(=O)(=O)c2cccs2)CC1
n

Another molecule: CCOc1c(Cl)cc(C(=O)Nc2ccccc2C(=O)O)cc1Cl
y

Another molecule: OCCCNc1nc(-c2ccc(Cl)cc2)nnc1-c1ccc(Br)cc1
n

Another molecule: O=C(NCCc1cn2ccsc2n1)c1cccs1
n

Another molecule: OCCCNc1nc(-c2ccc(Br)cc2)nnc1-c1ccc(Cl)cc1
n

Another molecule: CCCSc1nnc2c(n1)OC(c1sccc1C)Nc1ccccc1-2 (centres undefined)
y

Another molecule: NC(=O)C1(N2CCCCC2)CCN(c2nc(-c3ccc(Br)cc3)cs2)CC1
n

Another molecule: NC(=O)N1c2ccccc2C=Cc2ccccc21
n

Another molecule: Cc1[nH]c2ccccc2c1-c1nc(-c2ccc(Cl)cc2)nnc1-c1ccccc1
n

Another molecule: FC(F)(F)c1cccc(Oc2nc(-c3ccccc3)nnc2C(F)(F)F)c1
n

Another molecule: COc1ccc(OC)c(-c2csc(N3CCC(c4ccccc4)CC3)n2)c1
n

Another molecule: Cc1ccc(-c2nnc(-c3ccccc3)c(-c3ccccc3)n2)cc1
n

Another molecule: Cn1c(C(=O)NCc2cccs2)cc2oc3ccccc3c21
y

Another molecule: CCCCOC(C)n1cc(F)c(=O)[nH]c1=O (centres undefined)
n

Another molecule: O=c1[nH]c(=O)n(C2CCCO2)cc1Br (centres undefined)
n

Another molecule: Cc1oncc1C(=O)Nc1ccc(C(F)(F)F)cc1
y

Another molecule: OC[C@H]1O[C@@H](n2cnc3c(Nc4ccccc4)ncnc32)[C@H](O)[C@H]1O
y

Another molecule: NC(=O)C1(N2CCCCC2)CCN(c2nc(-c3ccccc3)cs2)CC1
n

Another molecule: COc1ccc(-c2csc(N3CCC(C(N)=O)(N4CCCCC4)CC3)n2)cc1
n

Another molecule: Cc1ccc(-c2csc(N3CCC(NS(=O)(=O)c4ccc5c(c4)OCCO5)CC3)n2)cc1
n

Another molecule: CC(C)(C)n1nnnc1C(c1ccc2ncccc2c1)N1CCSCC1 (centres undefined)
n

Another molecule: Nn1c(SCC(=O)NCCC2=CCCCC2)nnc1C1CCCCC1
n

Another molecule: O=C(NCc1cccs1)C(=O)NCC1OCCCN1S(=O)(=O)c1ccccc1 (centres undefined)
n

Another molecule: COCCCN1C(=O)C(=O)/C(=C(/O)c2ccc3c(c2)CC(C)O3)C1c1cccnc1 (centres undefined)
n
